- Study system: UniProt P56817
- Sequence (P56817 whole entry): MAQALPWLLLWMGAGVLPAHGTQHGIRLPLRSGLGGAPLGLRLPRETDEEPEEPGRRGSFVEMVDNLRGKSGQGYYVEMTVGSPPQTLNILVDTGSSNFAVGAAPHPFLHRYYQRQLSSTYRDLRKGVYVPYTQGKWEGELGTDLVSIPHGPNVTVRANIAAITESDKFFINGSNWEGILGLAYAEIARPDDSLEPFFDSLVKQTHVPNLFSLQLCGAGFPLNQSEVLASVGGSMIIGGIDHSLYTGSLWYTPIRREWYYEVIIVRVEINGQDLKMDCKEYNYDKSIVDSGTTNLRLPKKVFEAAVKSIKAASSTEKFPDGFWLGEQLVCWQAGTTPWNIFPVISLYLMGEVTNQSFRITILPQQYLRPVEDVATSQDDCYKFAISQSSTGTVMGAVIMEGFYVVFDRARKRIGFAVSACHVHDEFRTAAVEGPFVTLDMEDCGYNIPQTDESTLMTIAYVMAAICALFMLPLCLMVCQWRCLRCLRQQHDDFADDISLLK
- Test description: Inhibition of recombinant BACE1 (unknown origin)
Quantity kind: pKi
// scale note: pKi = -log10(conc_M); give the bare number

Answered examples (5):
mol=Cc1nc(C[C@H](C)C(=O)N[C@@H](CNC(=O)OC(C)(C)C)C(=O)N[C@@H](CC(C)C)[C@@H](O)C[C@@H](C)C(=O)N[C@H](C(=O)NCC(C)C)C(C)C)cs1 study_system="UniProt P56817" reported_value=7.50
mol=CC[C@@H](Cn1nc(C)cc1C)C(=O)N[C@@H](CNC(=O)OC(C)(C)C)C(=O)N[C@@H](CC(C)C)[C@@H](O)C[C@@H](C)C(=O)N[C@H](C(=O)NCC(C)C)C(C)C study_system="UniProt P56817" reported_value=7.20
mol=Cc1cc(C)n(C[C@H](C)C(=O)N[C@@H](CS(C)(=O)=O)C(=O)N[C@@H](CC(C)C)[C@@H](O)C[C@@H](C)C(=O)N[C@H](C(=O)NCC(C)C)C(C)C)n1 study_system="UniProt P56817" reported_value=6.72
mol=CC[C@@H](Cc1nc(C)cs1)C(=O)N[C@@H](CNC(=O)OC(C)(C)C)C(=O)N[C@@H](CC(C)C)[C@@H](O)C[C@@H](C)C(=O)N[C@H](C(=O)NCC(C)C)C(C)C study_system="UniProt P56817" reported_value=7.97
mol=Cc1cc(C)n(C[C@H](CC(C)C)C(=O)N[C@@H](CNC(=O)OC(C)(C)C)C(=O)N[C@@H](CC(C)C)[C@@H](O)C[C@@H](C)C(=O)N[C@H](C(=O)NCC(C)C)C(C)C)n1 study_system="UniProt P56817" reported_value=6.83

[Q] Would you kindly share the measured pKi for "Cc1csc(C[C@@H](C(=O)N[C@@H](CNC(=O)OC(C)(C)C)C(=O)N[C@@H](CC(C)C)[C@@H](O)C[C@@H](C)C(=O)N[C@H](C(=O)NCC(C)C)C(C)C)C(C)C)n1" ?
[A] 7.54

[Q] Would you kindly share the measured pKi for "Cc1cc(C)n(C[C@@H](C(=O)N[C@@H](CNC(=O)OC(C)(C)C)C(=O)N[C@@H](CC(C)C)[C@@H](O)C[C@@H](C)C(=O)N[C@H](C(=O)NCC(C)C)C(C)C)C(C)C)n1" ?
[A] 6.33

[Q] Would you kindly share the measured pKi for "Cc1ccn(C[C@H](C)C(=O)N[C@@H](CNC(=O)OC(C)(C)C)C(=O)N[C@@H](CC(C)C)[C@@H](O)C[C@@H](C)C(=O)N[C@H](C(=O)NCC(C)C)C(C)C)n1" ?
[A] 6.70

====

- Study system: Cathepsin D (Homo sapiens)
- Sequence (P07339 65-162 limits assumed): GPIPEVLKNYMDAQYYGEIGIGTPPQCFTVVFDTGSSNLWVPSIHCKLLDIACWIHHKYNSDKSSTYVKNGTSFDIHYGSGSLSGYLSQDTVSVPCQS
- Sequence (P07339 169-412 limits assumed): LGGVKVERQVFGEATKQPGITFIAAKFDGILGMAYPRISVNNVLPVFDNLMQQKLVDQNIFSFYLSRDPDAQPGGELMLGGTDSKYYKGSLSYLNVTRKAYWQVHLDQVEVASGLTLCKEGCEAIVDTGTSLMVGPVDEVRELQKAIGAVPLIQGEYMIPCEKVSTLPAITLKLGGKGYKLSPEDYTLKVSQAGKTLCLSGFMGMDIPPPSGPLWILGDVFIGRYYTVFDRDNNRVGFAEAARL
Quantity kind: pKi
// scale note: pKi = -log10(conc_M); give the bare number

[Q] Would you kindly share the measured pKi for "Cc1csc(C[C@H](C)C(=O)N[C@@H](CNC(=O)OC(C)(C)C)C(=O)N[C@@H](CC(C)C)[C@@H](O)C[C@@H](C)C(=O)N[C@H](C(=O)NCC(C)C)C(C)C)n1" ?
[A] 8.90

====

- Study system: Beta-secretase 2 (Homo sapiens)
- Sequence (Q9Y5Z0 whole entry): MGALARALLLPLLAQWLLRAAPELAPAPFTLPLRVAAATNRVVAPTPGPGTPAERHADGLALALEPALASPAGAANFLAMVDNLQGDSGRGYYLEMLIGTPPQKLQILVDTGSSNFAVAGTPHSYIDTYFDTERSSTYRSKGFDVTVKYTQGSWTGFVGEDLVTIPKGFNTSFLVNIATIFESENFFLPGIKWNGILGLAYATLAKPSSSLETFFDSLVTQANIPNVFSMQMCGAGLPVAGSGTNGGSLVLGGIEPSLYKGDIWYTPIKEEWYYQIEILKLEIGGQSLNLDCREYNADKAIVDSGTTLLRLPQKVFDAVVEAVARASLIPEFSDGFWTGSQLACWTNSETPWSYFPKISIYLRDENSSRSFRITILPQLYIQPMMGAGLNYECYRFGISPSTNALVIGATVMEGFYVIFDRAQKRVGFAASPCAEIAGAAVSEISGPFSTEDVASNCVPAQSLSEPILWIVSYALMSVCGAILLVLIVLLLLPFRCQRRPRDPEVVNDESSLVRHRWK
Quantity kind: Ki (nM)
Please give a number only; it is taken to be in nM.

[Q] Request - read-out Ki | tested on Beta-secretase 2 (Homo sapiens) | molecule "Cc1csc(C[C@H](C)C(=O)N[C@@H](CNC(=O)OC(C)(C)C)C(=O)N[C@@H](CC(C)C)[C@@H](O)C[C@@H](C)C(=O)N[C@H](C(=O)NCC(C)C)C(C)C)n1"
[A] 71
